tested on: A549; experiment: Antiproliferative activity against human A549 cells assessed as reduction in cell viability measured after 48 hrs MTT assay; format: functional, cell-based; conditions: A549, 48 h
pIC50: −log10 of the molar value.
property: pIC50

1: Cc1nsc2c1C(=O)c1c(O)cccc1C2=O
2: O=C1c2ncccc2C(=O)c2c(-c3ccccc3)nsc21
**Q:** When their pIC50 values are compared, which is larger, 1 or 2 ? Output the label that corresponds to your choice.
**A:** 2
(2: 6.09, 1: 5.71)

====

test system: A549; assay: Antiproliferative activity against human A549 cells assessed as reduction in cell viability measured after 48 hrs MTT assay; format: functional, cell-based; settings: A549, 48 h
property: IC50

So, COc1ccc(-c2nsc3c2C(=O)c2ccccc2C3=O)cc1 ? Its IC50 was > 40 µM

So, COc1cccc2c1C(=O)c1snc(-c3ccccc3)c1C2=O ? Its IC50 was > 40 µM

So, COc1ccc(-c2nsc3c2C(=O)c2c(OC)cccc2C3=O)cc1 ? Its IC50 was > 40 µM

====

molecular target: NAD(P)H dehydrogenase [quinone] 1 (Homo sapiens) (UniProt P15559); assay: Substrate activity at human NQO1 assessed as amount of NADH oxidation assessed per umol NQO1
Sequence (P15559 whole entry): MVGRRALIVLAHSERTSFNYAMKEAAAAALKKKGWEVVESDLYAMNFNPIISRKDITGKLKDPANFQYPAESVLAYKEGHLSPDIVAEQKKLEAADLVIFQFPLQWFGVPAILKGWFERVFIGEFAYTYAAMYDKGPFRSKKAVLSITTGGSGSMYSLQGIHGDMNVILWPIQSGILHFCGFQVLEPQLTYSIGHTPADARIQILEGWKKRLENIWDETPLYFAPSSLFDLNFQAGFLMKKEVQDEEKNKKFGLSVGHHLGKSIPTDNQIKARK
property: Activity (µmol/min)

a: COc1ccc(-c2nsc3c2C(=O)c2cccc(OC)c2C3=O)cc1
b: O=C1c2cccnc2C(=O)c2c(-c3ccccc3)nsc21
c: Cc1nsc2c1C(=O)c1c(O)cccc1C2=O
**Q:** Give the descending Activity ranking for the 3 compounds listed above. Note for the reader: the ranking is given by listing the labels in the order requested.
**A:** b, c, a

a: CC(=O)c1cc2c(o1)C(=O)c1ccccc1C2=O
b: COc1ccc(-c2nsc3c2C(=O)c2c(OC)cccc2C3=O)cc1
c: CCc1nsc2c1C(=O)c1cccnc1C2=O
d: Cc1nsc2c1C(=O)c1ccccc1C2=O
**Q:** Please put the entries in order of rising Activity. Note for the reader: the ranking is given by listing the labels in the order requested.
**A:** b, c, d, a

====

system: A549; assay: Antiproliferative activity against human A549 cells assessed as reduction in cell viability measured after 48 hrs MTT assay; format: functional, cell-based; conditions: A549, 48 h
pIC50: −log10 of the molar value.
property: pIC50

1: O=C1c2ccccc2C(=O)c2c(-c3ccccc3)nsc21
2: O=C1c2cccnc2C(=O)c2c(-c3ccccc3)nsc21
3: CCc1nsc2c1C(=O)c1cccc(O)c1C2=O
**Q:** Give the descending pIC50 ranking for the 3 compounds listed above. Note for the reader: the ranking is given by listing the labels in the order requested.
**A:** 2, 3, 1

====

target: NAD(P)H dehydrogenase [quinone] 1 (Homo sapiens); assay: Substrate activity at human NQO1 assessed as amount of NADH oxidation assessed per umol NQO1
property: Activity (µmol/min)

- CCc1nsc2c1C(=O)c1cccc(O)c1C2=O: 112
- O=C1c2ncccc2C(=O)c2c(-c3ccccc3)nsc21: 174
- CCc1nsc2c1C(=O)c1ccccc1C2=O: 122

a: COc1ccc(-c2nsc3c2C(=O)c2cccc(O)c2C3=O)cc1
b: Cc1nsc2c1C(=O)c1cccnc1C2=O
**Q:** When their Activity values are compared, which is larger, a or b ? Output the label that corresponds to your choice.
**A:** b
(b: 180 µmol/min, a: 38.9 µmol/min)

1: Cc1nsc2c1C(=O)c1ncccc1C2=O
2: COc1cccc2c1C(=O)c1snc(-c3ccccc3)c1C2=O
**Q:** Between 1 and 2 , which one shows the smaller Activity number? Output the label that corresponds to your choice.
**A:** 2
(2: 14.6 µmol/min, 1: 219 µmol/min)
